Just for reference, a melting point compilation (Tetko et al.; mined from patent text by program, amines drawn as free bases though some values may be those of a salt) is where these values come from.

{"columns": ["structure string", "melting point"],
 "data": [
  ["O=C(NCCO)c1cccc(-c2cccc3nn(Cc4cc(F)cc(Cl)c4)cc23)c1", "188 to 189 °C"],
  ["Cc1ccc(OCCOCCCCCCNCc2c(CO)ccc(O)c2CO)cc1C", "65 to 68 °C"],
  ["O=C(O)CCc1oc(-n2cnc3ccccc32)nc1-c1ccc(C(F)(F)F)cc1", "224 to 226 °C"],
  ["CC#Cc1ncn2c1CN(C)C(=O)c1ccccc1-2", "206 to 207 °C"],
  ["Nc1ccc(Cl)cc1C(=O)c1cccc(Cl)c1", "118 to 119 °C"]
]}
